Numbers sourced from PubChem BioAssay (EPA / NIEHS).

- Read-out: HGF (gene 3082)
- assayProtocol: LTEA_HepaRG_HGF: Life Technologies and Expression Analysis (LTEA) Assay for Hepatocyte Growth Facto (HGF) using HepaRG (AID 2283505)
- conditionsUsed: mRNA level, 48 h; actives raise or lower the signal
The source made the active and inactive calls. Rule for the calls: active = hit-call score of the fitted dose curve at least 0.9, where 1 is the maximum; inactive = score below 0.9.
Please reply with one of these outcomes: YES (active), NO (inactive)

compound	answerLabel
CC(=O)C(C)=CC1C(C)=CCCC1(C)C (stereo not drawn)	NO

Call for entry Oc1ccc2ccccc2c1N=Nc1ccccc1 : NO

Call for entry COc1cc(C=O)ccc1O : NO

Call for entry Cc1cc(NC(=O)C(=O)O)cc(C)c1Oc1ccc(O)c2c1CCC2 : NO

====

- Read-out: Apolipoprotein A-V (APOA5) gene, APOA5 (gene 116519)
- assayProtocol: LTEA_HepaRG_APOA5: Life Technologies and Expression Analysis (LTEA) Assay for Apolipoprotein A-V (APOA5) gene using HepaRG (AID 2283474)
- conditionsUsed: mRNA level, 48 h; actives raise or lower the signal
Activity calls are given as the source filed them. How the source made its calls: active means hit-call score of the fitted dose curve at least 0.9, where 1 is the maximum; inactive means score below 0.9.
Please reply with one of these outcomes: 1 = active, 0 = inactive

Sample answers from the record:
compound	answerLabel
Nc1ccc2c(c1)C(=O)c1ccccc1C2=O	1
NCCO	0
Cc1ccc2ncccc2c1	0

Call for entry CCCCCCOCCO : 0

Call for entry O=c1[nH]cc(F)c(=O)[nH]1 : 1

====

- Read-out: Transforming Growth Factor (TGFA), TGFA (gene 7039)
- assayProtocol: LTEA_HepaRG_TGFA: Life Technologies and Expression Analysis (LTEA) Assay for Transforming Growth Factor (TGFA) using HepaRG (AID 2283532)
- conditionsUsed: mRNA level, 48 h; actives raise or lower the signal
Active and inactive are the calls of the source. Rule for the calls: active = hit-call score of the fitted dose curve at least 0.9, where 1 is the maximum; inactive = score below 0.9.
Please reply with one of these outcomes: YES = active, NO = inactive

Sample answers from the record:
compound	answerLabel
NC(=O)Cn1c(=O)cc(CCN2CCN(c3nccc4sccc34)CC2)c2ccc(F)cc21	NO
O=C(OCCCCCOC(=O)c1ccccc1)c1ccccc1	YES
CCCCC(CC)COC(=O)CC(C(=O)OCC(CC)CCCC)S(=O)(=O)O (stereo not drawn)	YES
c1cc(-c2ccncc2)ccn1	NO
CN1CCN(Cc2cc(-c3ccc4[nH]c(=O)oc4c3)co2)[C@@H](c2ccc(F)cc2)C1	NO

Call for entry Cc1nc(-c2ccc3c(c2)CCN(CCC2CCC(NC(=O)/C=C/c4ccc(F)cc4)CC2)CC3)no1 (stereo not drawn) : NO

Call for entry Nc1ccccc1N : YES

Call for entry CCCCCCCCCCCC(=O)OC : NO

Call for entry COc1cc(-c2nc(NC(=O)c3cc4cc(C)cc(C)c4n3CC(=O)O)sc2CCC2CCCCC2)c(OC)cc1Cl : YES

Call for entry COc1cc(S(=O)(=O)O)c(C)cc1N=Nc1c(O)ccc2cc(S(=O)(=O)O)ccc12 : NO

Call for entry CCCCCCC(=O)OCC : NO

Call for entry CCOC(=O)CCC(=O)OCC : NO

Call for entry O=c1[nH]cc(F)c(=O)[nH]1 : NO

Call for entry CCCCOC(=O)CCCCCCCCC(=O)OCCCC : NO

Call for entry OC[C@@H](O)[C@@H](O)[C@H](O)[C@H](O)CO : NO

Call for entry C1CCC(SSC2CCCCC2)CC1 : NO

Call for entry CCCCCC(=O)O : NO

Call for entry CC=Cc1ccc(O)c(OC)c1 : NO
